- assay_summary: In vivo whole-body NIR fluorescence imaging
- condition_description: mouse, in vivo, iv, 300 uM, 150 uL
Where a SMILES comes first, the peptide text is derived from it. Bridges are numbered along the chain shown (N, C = ends). Roman numbers before positions name the chains, in order. The star is where a group is joined. X1 = CN1C(=CC=CC=CC2=[N+](CCCCCC(=O)*)c3ccc4ccccc4c3C2(C)C)C(C)(C)c2c1ccc1ccccc21
quantity_kind: tissue to tissue ratio at 2 h
Form: value (number only, do not type unit).

Ask: For C[C@H](NC(=O)CNC(=O)CNC(=O)CN)C(=O)NCC(=O)NCC(=O)NCC(=O)NCCCC[C@H](NC(=O)CNC(=O)CNC(=O)CNC(=O)[C@H](C)NC(=O)CNC(=O)CNC(=O)CN)C(=O)N[C@@H](CCCCNC(=O)CCCCC[N+]1=C(C=CC=CC=C2N(C)c3ccc4ccccc4c3C2(C)C)C(C)(C)c2c1ccc1ccccc21)C(N)=O [(GGGAGGG)2KK-Cy5.5, reference compound] (I: H-GGGAGGGKK(X1)-NH2 / II: H-GGGAGGG; amide I:8-II:C) , what is its reported tissue to tissue ratio at 2 h?
Reply: 1.43

Every entry's value here was drawn from paper PMC6542277.
